These entries and their values trace back to PubChem BioAssay (NCI).

tested on: NCI-H460 lung; assay: NCI-60 one-dose screen, 48 h (100 = growth as untreated, 0 = no growth, -100 = all killed); details: 10 µM unless noted
This is part of a sample that, as a whole, favours compounds with a hit. Of some 83,000 tested, about 20% had one in any assay.
Short version: growth at least 50% is rule met, less is rule not met.

compound=COc1cc(/C=C/C(=O)c2nc3cc(F)ccc3nc2C)cc(OC)c1OC subject_of_test="NCI-H460 lung" assigned_label="rule met"
compound=N/C(=N\C(N)=N\c1nc2ccccc2s1)c1cnccn1 subject_of_test="NCI-H460 lung" assigned_label="rule not met"
compound=COc1cc2oc(-c3cccc(C(=O)Nc4ccc(Cl)cc4)c3)cc(=O)c2c(O)c1OC subject_of_test="NCI-H460 lung" assigned_label="rule not met"
compound=O=C(CCN1CCCC1)Nc1ccc2c(NCc3ccccc3)c3ccccc3nc2c1 subject_of_test="NCI-H460 lung" assigned_label="rule not met"
compound="NC(=S)N1N=C(c2ccccc2)CC1c1cn(-c2ccccc2)nc1-c1ccc(OCc2ccccc2)cc1 (configuration not stated)" subject_of_test="NCI-H460 lung" assigned_label="rule met"
compound=CCOC(=O)c1nc2c3ccccc3ccn2c1C(=O)OCC subject_of_test="NCI-H460 lung" assigned_label="rule met"

* * *

test system: SNB-75 CNS; assay: NCI-60 one-dose screen, 48 h (100 = growth as untreated, 0 = no growth, -100 = all killed); conditions: 10 µM unless noted
The panel holds about 83,000 compounds, 20% with a hit somewhere; the sample as a whole holds those more often.
VALUE KIND: growth (%)

compound="O=C(c1nc2ccccc2[nH]1)C1C(c2ccc(Cl)cc2)C2CC3CCCC[C@H]3N2[C@@]12C(=O)Nc1cc(Cl)ccc12 (stereo partly drawn)" value_kind=growth endpoint_result=34.4
compound=Cc1ccc(-c2csc(NC(=O)CSc3nc(-c4ccccc4)cc(=O)[nH]3)n2)cc1 value_kind=growth endpoint_result=96.1
compound=CCc1ccc(CNc2ccc(N3CCOCC3)c(C(=O)O)c2)cc1 value_kind=growth endpoint_result=99.2
compound=CN(C)c1ccc(Nc2c3ccccc3nc3cc(NC(=O)CCN4CCCC4)ccc23)cc1 value_kind=growth endpoint_result=-0.0133
compound=O=C(O)c1ccc(NCc2cn(-c3ccc(C(F)(F)F)cc3)nc2-c2ccc(C(=O)O)cc2)cc1 value_kind=growth endpoint_result=91.8
compound=COc1ccccc1NS(=O)(=O)c1cccc(C(=O)Nc2ccc(Br)cc2)c1 value_kind=growth endpoint_result=65.9
compound=NCCCCCCNc1cc(-c2cccc(OC(F)(F)F)c2)nc2ccc(N3CCCC3)cc12 value_kind=growth endpoint_result=-32.4
compound=Fc1ccc2c(-c3cncn3CCc3ccccc3)c[nH]c2c1 value_kind=growth endpoint_result=47.7
compound="N#CC1=C(/N=C/c2ccccc2)Oc2c(ccc3ccccc23)C1c1ccc([N+](=O)[O-])cc1 (stereo not drawn)" value_kind=growth endpoint_result=60.4
compound=COc1cc(-c2csc(NC(=O)c3cc(F)cc(C(F)(F)F)c3)n2)cc(OC)c1OC value_kind=growth endpoint_result=19.3
compound=COc1ccc(CC(C)=C(c2ccc(OCCN3CCCCCC3)cc2)c2ccc(OCCN3CCCCCC3)cc2)cc1 value_kind=growth endpoint_result=-92.9
compound=CCN(CC)CCn1c(=O)c2cc(OC)c(OC)cc2c2ccc3cc4c(cc3c21)OCO4 value_kind=growth endpoint_result=47.9
compound=CCOC(=O)C1=C(C)NC(SCc2cc(=O)oc3ccc(F)cc23)=N[C@@H]1c1cccc2ccccc12 value_kind=growth endpoint_result=98.8
compound=CN1C(N2CCN(S(=O)(=O)c3ccccc3)CC2)=NS(=O)(=O)c2ccccc21 value_kind=growth endpoint_result=53.4
compound=CN(C)CCC(=O)c1ccc([N+](=O)[O-])cc1 value_kind=growth endpoint_result=90.9
compound=COc1ccc(C(=O)c2cc(OC)c(OC)c(OC)c2)cc1O value_kind=growth endpoint_result=-0.83
compound=O=C1/C=C/[C@@H](O)[C@@H]2C[C@@H](O)C[C@H]2/C=C/CCC[C@H](CCc2ccc3ncccc3c2)O1 value_kind=growth endpoint_result=33.2
compound=N/C(=N\C(N)=N\c1nc2ccccc2s1)c1ccnc(Br)c1 value_kind=growth endpoint_result=-13.2
compound=Cc1nc2sccn2c1-c1cn2ccsc2n1 value_kind=growth endpoint_result=84.8
compound="COc1cc(/C=N/NC(=O)c2cnn3c2NC(c2ccccc2)C3)ccc1OCc1ccccc1 (stereo not drawn)" value_kind=growth endpoint_result=26.1
compound=Cc1nn(-c2ccccc2)c(Cl)c1/C=C/C(=O)c1ccc(F)cc1 value_kind=growth endpoint_result=97.9
compound=N#C/C(=C\c1ccc(Cl)cc1)n1nnc2cc(F)c(F)cc21 value_kind=growth endpoint_result=15.9
compound=C=C1C(=O)O[C@H]2[C@H]1CC/C(COC(=O)NCc1c[nH]c3ccc(Cl)cc13)=C\CC[C@@]1(C)O[C@@H]21 value_kind=growth endpoint_result=-6.74
compound=CC[C@]12C=CCN3CC[C@@]4(c5cc(NC(=O)CCC(=O)O[C@H]6CC[C@H]7[C@@H]8CCC9=CC(=O)CC[C@@H]9[C@H]8CC[C@]67C)c(OC)cc5N(C)[C@H]4[C@@](O)(C(=O)OC)[C@@H]1OC(C)=O)[C@@H]32 value_kind=growth endpoint_result=68.6
compound=CCCCCCNC(=O)Oc1ccc(/C(=C(\C)c2ccccc2)c2ccc(OCCN3CCCCC3)cc2)cc1 value_kind=growth endpoint_result=92.5
compound=C[C@H]1[C@H](C)CC[C@]2(C(=O)NCC#CCN3CCN(C)CC3)CC[C@]3(C)C(=CC[C@@H]4[C@@]5(C)Cc6c([nH]c7ccccc67)C(C)(C)[C@@H]5CC[C@]43C)[C@H]12 value_kind=growth endpoint_result=90.1
compound=Cc1ccc(-n2cc(-c3ccccc3)c3c2N=NN2CCN=C32)cc1 value_kind=growth endpoint_result=72.1
compound="CN1C(=O)NC(c2ccc3c(c2)OCO3)C=C1c1ccccc1 (stereo not drawn)" value_kind=growth endpoint_result=80.2
compound="COc1cc(C=O)ccc1OC1OC(COC(C)=O)C(OC(C)=O)C(OC(C)=O)C1OC(C)=O (stereo not drawn)" value_kind=growth endpoint_result=106
compound=NC(=O)CSSCC(N)=O value_kind=growth endpoint_result=95.2
compound=C=C1C(=O)O[C@H]2[C@H]1CC/C(CNC(=O)CCc1ccc(OC)cc1)=C\CC[C@@]1(C)O[C@@H]21 value_kind=growth endpoint_result=116
compound=O=C1c2c(c3c4cccc(F)c4[nH]c3c3ccc4ccccc4c23)C(=O)N1O value_kind=growth endpoint_result=68.7
compound=COc1cc(/C=C\C(=O)O)ccc1OCc1ccccc1 value_kind=growth endpoint_result=103
